glass transition temperature by entry:
// note: answer is a bare numeric in °C

*c1ccc(Oc2cccc(Oc3ccc(N4C(=O)c5ccc(Oc6ccc(Oc7ccc8c(c7)C(=O)N(*)C8=O)cc6)cc5C4=O)cc3)c2)cc1 (repeat unit)
199.00
*Oc1ccc(-c2ccc(OC(=O)c3ccc(C(*)=O)cc3Sc3ccc4ccccc4c3)cc2)cc1 (repeat unit)
141.00
*CC(O)CN(C)S(=O)(=O)c1cccc(S(=O)(=O)N(C)CC(O)COc2ccc(Sc3ccc(O*)cc3)cc2)c1 (repeat unit)
90.00

Ask | State, in one line, measured glass transition temperature of *CCCCCCN1C(=O)c2ccc(-c3ccc(-c4ccc5c(c4)C(=O)N(*)C5=O)cc3)cc2C1=O (repeat unit)
Reply | 141.00
